Value source: PubChem BioAssay (NCI)

// values below are reported growth
- System: HCT-15 colon
- ASSAY_SUMMARY: NCI-60 one-dose screen, 48 h (100 = growth as untreated, 0 = no growth, -100 = all killed)
- CONDITION: 10 µM unless noted
About 83,000 compounds went through this panel and 20% of them were active in at least one assay; those are over-represented in the sample as a whole. Activity calls are given as the source filed them. Rule for the calls: active = growth percent below 10; inactive = the rest.
MEASURED_QUANTITY: growth

[
  {
    "COMPOUND": "O=C1OC(c2ccccc2)(c2ccccc2)c2ccsc21",
    "RESULT": "95.2% (inactive)"
  },
  {
    "COMPOUND": "COC(=O)c1c2c(c(C)[n+]([O-])c1C)C(=O)C(NCc1ccc(F)c(F)c1)=CC2=O",
    "RESULT": "6.07% (active)"
  },
  {
    "COMPOUND": "CC1(O)COCCCCOc2c(CN)cccc2NC(=O)c2nc(cnc2N)-c2ccc(cc2)S(=O)(=O)C(C)(C)C1 (centres undefined)",
    "RESULT": "-82.7% (active)"
  },
  {
    "COMPOUND": "COc1ccc(Cn2cc(Cn3c(=O)c(-c4nc5ccccc5[nH]4)cc4ccccc43)nn2)c(OC)c1OC",
    "RESULT": "11.1% (inactive)"
  },
  {
    "COMPOUND": "NNC(=O)CNC(=O)Nc1n[nH]c(=S)s1",
    "RESULT": "109% (inactive)"
  },
  {
    "COMPOUND": "COc1ccc(Nc2nc(N/N=C/c3ccc(O)cc3)nc(Nc3ccc([N+](=O)[O-])cc3)n2)cc1",
    "RESULT": "107% (inactive)"
  },
  {
    "COMPOUND": "NCCNc1nc2ccccc2c2c(=O)c3cc(F)cc(Cl)c3sc12",
    "RESULT": "-83.4% (active)"
  },
  {
    "COMPOUND": "COc1ccc(/C(C#N)=C/c2nc3c(N4CCOCC4)nc(Cl)nc3n2C)cc1OC",
    "RESULT": "-40.8% (active)"
  },
  {
    "COMPOUND": "COc1ccccc1C1=C(Br)C(=O)c2nc(C)ccc2C1=O",
    "RESULT": "96.7% (inactive)"
  },
  {
    "COMPOUND": "COc1ccc(-c2nsc3c2NC(=O)CC3c2cccc(OC)c2)cc1 (centres undefined)",
    "RESULT": "26.4% (inactive)"
  },
  {
    "COMPOUND": "O=C(Nc1ccc(N2CCNCC2)cn1)c1[nH]ncc1Nc1ncnc2sc3c(c12)CCC3",
    "RESULT": "-85.6% (active)"
  },
  {
    "COMPOUND": "Cn1cc([C@@H]2Nc3ccc4[nH]ncc4c3[C@H]3[C@H]4CCC(C4)[C@H]32)c(C(F)(F)F)n1",
    "RESULT": "30.8% (inactive)"
  },
  {
    "COMPOUND": "CC(C)C[C@H](C(=O)N[C@H](C(N)=O)C(C)C)N1CC=CCN(OCc2ccccc2)S1(=O)=O",
    "RESULT": "104% [2.5 µM] (inactive)"
  },
  {
    "COMPOUND": "CCN1C(=O)N(CC)C2Nn3c(s/c(=C\\c4ccccc4F)c3=O)=NC21 (centres undefined)",
    "RESULT": "26.5% (inactive)"
  },
  {
    "COMPOUND": "CCOC(=O)c1c2c(c(C)n1Cc1ccc(OC)cc1)-c1oncc1CC2",
    "RESULT": "91.3% (inactive)"
  },
  {
    "COMPOUND": "N#C/C(=C\\c1c(-c2ccccc2)[nH]c2ccccc12)C(=O)c1ccccc1",
    "RESULT": "42.1% (inactive)"
  },
  {
    "COMPOUND": "COc1cc(/C=C/C(=O)c2ccc(Nc3nc(NCCO)nc(N4CCOCC4)n3)cc2)cc(OC)c1OC",
    "RESULT": "2.16% (active)"
  },
  {
    "COMPOUND": "CC(C)c1ccc(S(=O)(=O)NC(=O)NC2CCCC2)cc1",
    "RESULT": "97.3% (inactive)"
  },
  {
    "COMPOUND": "COc1cccc2cc(N(C)c3nc(C)nc4ccsc34)ccc12",
    "RESULT": "0.625% (active)"
  },
  {
    "COMPOUND": "CNCCNc1nc2ccccc2c2c(=O)c3cc(OC)ccc3sc12",
    "RESULT": "-31.8% (active)"
  },
  {
    "COMPOUND": "CCOC(=O)C1(C(=O)OCC)N=C(c2ccccc2)C=C1c1ccccc1",
    "RESULT": "96.5% (inactive)"
  },
  {
    "COMPOUND": "CCCCCCc1cc2cc(-c3nc4ccccc4[nH]3)c(=Nc3ccccc3C)oc2cc1O",
    "RESULT": "31.2% (inactive)"
  },
  {
    "COMPOUND": "COc1cccc2c(=O)c3c(sc12)c(NCCCNCCO)nc1ccccc13",
    "RESULT": "25.6% (inactive)"
  },
  {
    "COMPOUND": "O=C(/C=C/c1ccc(C(F)(F)F)cc1)c1ccc(Nc2nc(NCCO)nc(N3CCOCC3)n2)cc1",
    "RESULT": "7.59% (active)"
  },
  {
    "COMPOUND": "O=C(CSc1ncccc1C(=O)O)Nc1ccc(Oc2ccccc2)cc1",
    "RESULT": "104% (inactive)"
  },
  {
    "COMPOUND": "COc1cccc(C2=NN3C(C2)c2ccccc2OC3c2ccc(/C=C3\\SC(=O)NC3=O)cc2)c1 (centres undefined)",
    "RESULT": "95.2% (inactive)"
  },
  {
    "COMPOUND": "COc1ccc(C2=Nn3c(NN)nnc3SC2)cc1",
    "RESULT": "114% (inactive)"
  },
  {
    "COMPOUND": "O=c1[nH]nnc2c1ncn2C1OC(CO)C(O)C1O (centres undefined)",
    "RESULT": "66.5% (inactive)"
  },
  {
    "COMPOUND": "COc1ccc(CSc2nnc(SCC(=O)Nc3ccc(Cl)cc3)s2)cc1",
    "RESULT": "48.1% (inactive)"
  },
  {
    "COMPOUND": "CNC(=O)c1cc(Oc2ccc(CC(=O)Nc3cc(C(C)(C)C)cn3C)cc2)ccn1",
    "RESULT": "93.8% (inactive)"
  },
  {
    "COMPOUND": "COc1ccc(C2c3ccc4ccccc4c3Oc3ncn(CCCn4ccnc4)c(=N)c32)cc1OC (centres undefined)",
    "RESULT": "68.5% (inactive)"
  },
  {
    "COMPOUND": "CCOC(=O)c1sc(-c2ccc(OS(=O)(=O)C[C@]34CCC(CC3=O)C4(C)C)c(C=O)c2)nc1C",
    "RESULT": "5.75% (active)"
  },
  {
    "COMPOUND": "CCCC(=O)CC(C)=O.CCCC(=O)CC(C)=O.[Cu]",
    "RESULT": "105% (inactive)"
  },
  {
    "COMPOUND": "O=C(Nc1ccc(C23CC4CC(CC(c5ccccc5)(C4)C2)C3)cc1)c1cccs1",
    "RESULT": "60.2% (inactive)"
  },
  {
    "COMPOUND": "COc1ccc(C2NCCc3c2[nH]c2ccccc32)cc1CN1CCN(c2ccc(F)cc2)CC1 (centres undefined)",
    "RESULT": "8.26% (active)"
  },
  {
    "COMPOUND": "CCN1C(=O)N(c2ccccc2)C2NN=c3s/c(=C4\\C(=O)N(C(C)C)c5ccccc54)c(=O)n3C21 (centres undefined)",
    "RESULT": "17.7% (inactive)"
  },
  {
    "COMPOUND": "COc1ccc(/C=c2\\sc3n(c2=O)NC2C(N=3)N(C)C(=O)N2C)cc1 (centres undefined)",
    "RESULT": "96.4% (inactive)"
  },
  {
    "COMPOUND": "COC(=O)/C(CCC=C(C)C)=C1\\[C@@H](OC(C)=O)C[C@@]2(C)[C@H]1C[C@@H](O)[C@H]1[C@@]3(C)CC[C@H](NC(=O)c4cnccn4)[C@@H](C)[C@@H]3CC[C@@]12C",
    "RESULT": "96.3% (inactive)"
  },
  {
    "COMPOUND": "Cc1nc2ccccc2c(/C=C/c2ccc(F)cc2)c1C(N)=O",
    "RESULT": "108% (inactive)"
  }
]

---

- Tested on: OVCAR-3 ovarian
- ASSAY_SUMMARY: NCI-60 one-dose screen, 48 h (100 = growth as untreated, 0 = no growth, -100 = all killed)
- CONDITION: 10 µM unless noted
This is part of a sample that, as a whole, favours compounds with a hit. Of some 83,000 tested, about 20% had one in any assay.
// values below are reported growth
MEASURED_QUANTITY: growth (%)

[
  {
    "COMPOUND": "Nc1no[n+]([O-])c1-c1nnc2c(n1)-c1ccccc1C2=O",
    "MEASURED_QUANTITY": "growth",
    "NUMERIC_READOUT": -20.2
  },
  {
    "COMPOUND": "O=C(NC1CCCCC1)C(c1cccs1)N(CCc1ccccc1)C(=O)c1ccco1 (stereo not given)",
    "MEASURED_QUANTITY": "growth",
    "NUMERIC_READOUT": 96.6
  },
  {
    "COMPOUND": "COc1ccc(C2Nc3nc(OC)n(C)c(=O)c3N=C3c4ccccc4C(=O)C32)cc1 (stereo not given)",
    "MEASURED_QUANTITY": "growth",
    "NUMERIC_READOUT": 94.6
  },
  {
    "COMPOUND": "O=C1/C(=C/c2cccc(O)c2)COc2ccc(O)cc21",
    "MEASURED_QUANTITY": "growth",
    "NUMERIC_READOUT": 55.5
  },
  {
    "COMPOUND": "Nc1nc(-c2cnccn2)nn1-c1nc2ccccc2s1",
    "MEASURED_QUANTITY": "growth",
    "NUMERIC_READOUT": 108
  },
  {
    "COMPOUND": "COc1ccc(N2C(=O)CC(c3cc(OC)c(OC)c(OC)c3)C3C2=NC(=O)N3C)cc1 (stereo not given)",
    "MEASURED_QUANTITY": "growth",
    "NUMERIC_READOUT": 108
  },
  {
    "COMPOUND": "COC(=O)/C(=C\\c1c(C)[nH]c2ccccc12)S(=O)(=O)c1ccccc1",
    "MEASURED_QUANTITY": "growth",
    "NUMERIC_READOUT": -19.8
  },
  {
    "COMPOUND": "CC1=C(C(=O)OCC2CCN(C(=O)OC(C)(C)C)CC2)[C@H](c2cccc(C#N)c2)C2=C(CC(C)(C)CC2=O)N1",
    "MEASURED_QUANTITY": "growth",
    "NUMERIC_READOUT": 58.3
  },
  {
    "COMPOUND": "Nc1ccn(C2O[C@H](CO)[C@@H](O)[C@H]2O)c(=O)n1 (stereo not given in full)",
    "MEASURED_QUANTITY": "growth",
    "NUMERIC_READOUT": 88.7
  },
  {
    "COMPOUND": "COc1c(B(O)O)cccc1-c1nc2ccc3n[nH]c(F)c3c2c2c1CCCC2",
    "MEASURED_QUANTITY": "growth",
    "NUMERIC_READOUT": 91
  }
]
